target: CaNbp2; assay: SPOT peptide array binding signal intensity (averaged, normalized) (arbitrary units (background-subtracted, floor 0; scale differs between SH3 domains)); higher = stronger binding of the SH3 domain to the peptide
MEASUREMENT_NAME: SPOT peptide array binding signal intensity
I only need the number, thanks.

Solved entries (count: 3):
BINDER | OBSERVED_MEASUREMENT
VPPVPLPFGIPPFPM | 88.5
SSSSSPPPLPTRRDH | 24.5
ISNFVPPNLPMRRFK | 103

Entry LYKRKPILLPDPKPL ; SPOT peptide array binding signal intensity = 33

Entry RSLRKRPTSPSISGS ; SPOT peptide array binding signal intensity = 1160

Entry NMLSRPRLAKLPSIR ; SPOT peptide array binding signal intensity = 1250

Entry LYEAMPPTLPHRDWK ; SPOT peptide array binding signal intensity = 141
